The following compounds are listed with their measured activity coefficient values.
protocol-text: activity coefficient (dimensionless); of the first substance listed, at infinite dilution; xn = mol fraction of the nth substance listed
condition-info: 318.15 K; 101.33 kPa; Liquid; Chromatography; x1 = 0
readout-kind: activity coefficient

1) C=CCCCCCCCC [1-decene] + N#C[N-]C#N.OCCC[n+]1ccccc1 ... 887
2) CC(C)OC(C)C [diisopropyl ether] + N#C[N-]C#N.OCCC[n+]1ccccc1 ... 105
3) C1COCCO1 [1,4-dioxane] + N#C[N-]C#N.OCCC[n+]1ccccc1 ... 1.74
4) CCCOCCC [dipropyl ether] + N#C[N-]C#N.OCCC[n+]1ccccc1 ... 92.3
5) C#CCCCCC [1-heptyne] + N#C[N-]C#N.OCCC[n+]1ccccc1 ... 37.4
6) CCO [ethanol] + N#C[N-]C#N.OCCC[n+]1ccccc1 ... 1.3
7) C1=CCCCC1 [cyclohexene] + N#C[N-]C#N.OCCC[n+]1ccccc1 ... 36.6
8) c1ccncc1 [pyridine] + N#C[N-]C#N.OCCC[n+]1ccccc1 ... 1.39
9) Cc1cccc(C)c1 [1,3-dimethylbenzene] + N#C[N-]C#N.OCCC[n+]1ccccc1 ... 14.4
10) CCC(=O)OC [methyl propanoate] + N#C[N-]C#N.OCCC[n+]1ccccc1 ... 5.77
11) CC1CCCCC1 [methylcyclohexane] + N#C[N-]C#N.OCCC[n+]1ccccc1 ... 182

###

protocol-text: activity coefficient (dimensionless); of the first substance listed, at infinite dilution; xn = mol fraction of the nth substance listed
condition-info: 338.15 K; 101.33 kPa; Liquid; Chromatography; x1 = 0
Tick satisfied if activity coefficient is 10 or greater. Tick not satisfied if activity coefficient is less than 10.

1) CCOCC [diethyl ether] + N#C[N-]C#N.OCCC[n+]1ccccc1 ... satisfied
2) C1=CCCCC1 [cyclohexene] + N#C[N-]C#N.OCCC[n+]1ccccc1 ... satisfied
3) C=CCCCCCCCC [1-decene] + N#C[N-]C#N.OCCC[n+]1ccccc1 ... satisfied
4) CCCCCCCC [octane] + N#C[N-]C#N.OCCC[n+]1ccccc1 ... satisfied
5) CC1CCCCC1 [methylcyclohexane] + N#C[N-]C#N.OCCC[n+]1ccccc1 ... satisfied
6) C=CCCCCC [1-heptene] + N#C[N-]C#N.OCCC[n+]1ccccc1 ... satisfied
7) C1CCCC1 [cyclopentane] + N#C[N-]C#N.OCCC[n+]1ccccc1 ... satisfied
8) CCCC=O [butanal] + N#C[N-]C#N.OCCC[n+]1ccccc1 ... not satisfied
9) Cc1ccc(C)cc1 [1,4-dimethylbenzene] + N#C[N-]C#N.OCCC[n+]1ccccc1 ... satisfied
10) CCCO [propan-1-ol] + N#C[N-]C#N.OCCC[n+]1ccccc1 ... not satisfied
11) CO [methanol] + N#C[N-]C#N.OCCC[n+]1ccccc1 ... not satisfied
12) CCC(C)(C)OC [2-methoxy-2-methylbutane] + N#C[N-]C#N.OCCC[n+]1ccccc1 ... satisfied
13) O [water] + N#C[N-]C#N.OCCC[n+]1ccccc1 ... not satisfied
14) CC(C)CO [2-methyl-1-propanol] + N#C[N-]C#N.OCCC[n+]1ccccc1 ... not satisfied
15) Cc1ccccc1C [1,2-dimethylbenzene] + N#C[N-]C#N.OCCC[n+]1ccccc1 ... satisfied
16) C1CCOC1 [tetrahydrofuran] + N#C[N-]C#N.OCCC[n+]1ccccc1 ... not satisfied
17) C=C(C)c1ccccc1 [(1-methylethenyl)benzene] + N#C[N-]C#N.OCCC[n+]1ccccc1 ... satisfied
18) COC(C)(C)C [2-methoxy-2-methylpropane] + N#C[N-]C#N.OCCC[n+]1ccccc1 ... satisfied
19) CCCCCCC [heptane] + N#C[N-]C#N.OCCC[n+]1ccccc1 ... satisfied
